variants and their reported exon inclusion enrichment index
B1: mRNA-splicing (parent)
chain: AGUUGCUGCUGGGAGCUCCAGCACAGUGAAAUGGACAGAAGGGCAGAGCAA

- Variants of: B1
- assay-remarks: exon inclusion enrichment index; higher = more inclusion; WT1 exon 5 minigene, HEK293

Example entries and their recorded answers appear below.
G5A C6U U7A G8U C9A C24A A25C : 0.405
G5C C6U G8C C9U U10C A25U G26U : 1.7
G5U G8U C9U A39U A40G : 0.0207
G5A C6G U7G C9A A40U G41A : 0.000658
C6A U7A G8A C9A U10A : 0.207

Req: Can you look up the measured exon inclusion enrichment index of C6A U7C C9A U10C G12C G13A for me?
Resp: 2.55

Req: For the variant C6A U7C C9A U10C G26A U27C , what exon inclusion enrichment index is on record?
Resp: 4.65

Req: Item U4A C6U U7A G8U C9A has what recorded exon inclusion enrichment index?
Resp: 0.00525

Req: Please give the measured exon inclusion enrichment index for this variant: U3G G5A C6G U7G C9A
Resp: 0.0125

Req: Suppose we examine the variant G5A C6G U7G C9A G33U G34A ; what exon inclusion enrichment index value has been reported?
Resp: 0.000839

Req: What does the record list as exon inclusion enrichment index for G5C C6G U7C U10C G11C G12C ?
Resp: 1.04
